Origin of values: PubChem BioAssay AID330

Measured T/C of individual entries
- System: P388 leukemia ip, CD2F1 mice, survival T/C
- PROTOCOL: NCI In Vivo Anticancer Drug Screen. Data for tumor model P388 Leukemia (intraperitoneal) in CD2F1 (CDF1) mice
- APPLIED_CONDITIONS: endpoint: median survival time; dose: 100.0 mg/kg/injection; schedule: Q04DX003 (ip); vehicle: saline; higher = longer survival
- Method: The antitumor activity of compounds was measured in mice bearing transplantable tumors. Survival or tumor size were measured and the results are expressed as the measurement made in the treated group (T) divided by the measurement made in the vehicle treated control group (C). The tumor model used in this assay is P388 Leukemia (intraperitoneal) in CD2F1 (CDF1) mice
Inconclusive results and toxic doses are left out.
VALUE_KIND: T/C

compound="CCC(O)(C(=O)O)c1ccccc1 (centres undefined)" endpoint_result="94 % of control"
compound=O=C1CC(=P(c2ccccc2)(c2ccccc2)c2ccccc2)C(=O)O1 endpoint_result="100 % of control"
compound=CN(C)c1ccc(N=Cc2cc[n+](C)cc2)cc1 endpoint_result="107 % of control"
compound=CC(/C=N\NC(N)=O)=N/N=C(N)N endpoint_result="94 % of control"
compound=O=C(CCS(=O)O)c1cccs1 endpoint_result="99 % of control"
compound=CCO/C=C1\SC(=S)N(c2ccc(O)cc2)C1=O endpoint_result="113 % of control"
compound=CC(=O)n1[nH]c(=O)ccc1=O endpoint_result="115 % of control"
compound=CCN(CC)CCC[Si]1(C)c2ccccc2CCc2ccccc21 endpoint_result="92 % of control"
compound=C/C(=N\NC(=S)N1CCC(c2ccccc2)CC1)c1ccccn1 endpoint_result="100 % of control"
compound=[Cl][Al]([Cl])[Cl] endpoint_result="90 % of control"
compound=CNC(=S)N/N=C\C(C)=N/Nc1ccc(F)cc1 endpoint_result="99 % of control"
compound=CN(C)CCS(=O)(=O)O endpoint_result="102 % of control"
compound="Cc1ccc(C2NC(c3ccc(C)cc3)C3CCCC2C3O)cc1 (centres undefined)" endpoint_result="100 % of control"
compound=[Co+3].[NH-]CC[NH-].[NH-]CC[NH-].[NH-]CC[SH2+].[O-][Cl+3]([O-])([O-])O endpoint_result="100 % of control"
compound="CCCCC(NC(C)(C)C)c1ccccc1 (centres undefined)" endpoint_result="97 % of control"
compound=CC(/C=N\Nc1ccc(C(=O)O)cc1)=N/N=C(N)N endpoint_result="99 % of control"
compound=C1=NCCCCCCCN=Cc2ccccc2NCCNc2ccccc21 endpoint_result="94 % of control"
compound="NC(COC(c1ccccc1)(c1ccccc1)c1ccccc1)C(=O)O (centres undefined)" endpoint_result="118 % of control"
compound=COC(OC)c1cc(=O)[nH]c(=S)[nH]1 endpoint_result="96 % of control"
